test system: KB; assay: Increase in protoporphyrin 9 levels in human KB cells at 200 uM after 3 to 24 hrs by fluorescence spectrometer plate reader method; format: functional, cell-based
Active and inactive are the calls of the source. The rule behind the calls is not given here.
Labels: true for active, false for inactive

[[record]]
smiles_text = "COC(=O)CCC(=O)CNC(=O)[C@H](Cc1ccccc1)NC(=O)c1c(O)c(=O)ccn1C"
discrete_label = "true"

[[record]]
smiles_text = "CCCCn1ccc(=O)c(O)c1C(=O)N[C@@H](CC(C)C)C(=O)NCC(=O)CCC(=O)OC"
discrete_label = "false"

[[record]]
smiles_text = "COCCn1ccc(=O)c(O)c1C(=O)N[C@@H](CC(C)C)C(=O)NCC(=O)CCC(=O)OC"
discrete_label = "false"

[[record]]
smiles_text = "COCCn1ccc(=O)c(O)c1C(=O)N[C@@H](Cc1ccccc1)C(=O)NCC(=O)CCC(=O)OC"
discrete_label = "false"

[[record]]
smiles_text = "CCCCCCn1ccc(=O)c(O)c1C(=O)N[C@@H](CC(C)C)C(=O)NCC(=O)CCC(=O)OC"
discrete_label = "false"

[[record]]
smiles_text = "CCn1ccc(=O)c(O)c1C(=O)N[C@@H](CC(C)C)C(=O)NCC(=O)CCC(=O)OC"
discrete_label = "false"

[[record]]
smiles_text = "CCCCn1ccc(=O)c(O)c1C(=O)N[C@@H](Cc1ccccc1)C(=O)NCC(=O)CCC(=O)OC"
discrete_label = "false"

[[record]]
smiles_text = "CCn1ccc(=O)c(O)c1C(=O)N[C@@H](Cc1ccccc1)C(=O)NCC(=O)CCC(=O)OC"
discrete_label = "false"

[[record]]
smiles_text = "CCCCCCn1ccc(=O)c(O)c1C(=O)N[C@@H](Cc1ccccc1)C(=O)NCC(=O)CCC(=O)OC"
discrete_label = "false"

[[record]]
smiles_text = "COC(=O)CCC(=O)CNC(=O)[C@H](CC(C)C)NC(=O)c1c(O)c(=O)ccn1C"
discrete_label = "false"


----------
assay: Phototoxicity in human BPH1 cells assessed as cell survival at 200 uM incubated for 4 hrs followed by irradiation with blue light for 5 mins by MTT assay; format: cell-based, BPH-1; conditions: bph-1, 4 h, 200 µM
Outcome measure: Activity

[[record]]
smiles_text = "CCCCCCn1ccc(=O)c(O)c1C(=O)N[C@@H](Cc1ccccc1)C(=O)NCC(=O)CCC(=O)OC"
result = "Non-toxic"

[[record]]
smiles_text = "COC(=O)CCC(=O)CNC(=O)[C@H](CC(C)C)NC(=O)c1c(O)c(=O)ccn1C"
result = "Non-toxic"

[[record]]
smiles_text = "CCCCn1ccc(=O)c(O)c1C(=O)N[C@@H](Cc1ccccc1)C(=O)NCC(=O)CCC(=O)OC"
result = "Non-toxic"

[[record]]
smiles_text = "CCn1ccc(=O)c(O)c1C(=O)N[C@@H](Cc1ccccc1)C(=O)NCC(=O)CCC(=O)OC"
result = "Non-toxic"

[[record]]
smiles_text = "COCCn1ccc(=O)c(O)c1C(=O)N[C@@H](Cc1ccccc1)C(=O)NCC(=O)CCC(=O)OC"
result = "Non-toxic"

[[record]]
smiles_text = "CCn1ccc(=O)c(O)c1C(=O)N[C@@H](CC(C)C)C(=O)NCC(=O)CCC(=O)OC"
result = "Non-toxic"

[[record]]
smiles_text = "CCCCCCn1ccc(=O)c(O)c1C(=O)N[C@@H](CC(C)C)C(=O)NCC(=O)CCC(=O)OC"
result = "Non-toxic"

[[record]]
smiles_text = "CCCCn1ccc(=O)c(O)c1C(=O)N[C@@H](CC(C)C)C(=O)NCC(=O)CCC(=O)OC"
result = "Non-toxic"

[[record]]
smiles_text = "COCCn1ccc(=O)c(O)c1C(=O)N[C@@H](CC(C)C)C(=O)NCC(=O)CCC(=O)OC"
result = "Non-toxic"


----------
Reported values of viability at 4 h, 200 µM for individual entries
assay: Phototoxicity in human BPH1 cells assessed as cell survival at 200 uM incubated for 4 hrs followed by irradiation with blue light for 5 mins by MTT assay; assay type: cell-based, BPH-1; conditions: BPH1 cells, read-out: Survival
Outcome measure: viability at 4 h, 200 µM (%)

[[record]]
compound = "NCC(=O)CCC(=O)O [AMINOLEVULINIC ACID]"
outcome_measure = "viability at 4 h, 200 µM"
numeric_value = 70.8

[[record]]
compound = "COC(=O)CCC(=O)CNC(=O)[C@H](Cc1ccccc1)NC(=O)c1c(O)c(=O)ccn1C"
outcome_measure = "viability at 4 h, 200 µM"
numeric_value = 12.4


----------
assay: Phototoxicity in human BPH1 cells assessed as cell survival at 100 uM incubated for 4 hrs followed by irradiation with blue light for 5 mins by MTT assay; assay type: cell-based, BPH-1; details: read-out: Survival
Outcome measure: viability at 4 h, 100 µM (%)

[[record]]
smiles_text = "COC(=O)CCC(=O)CNC(=O)[C@H](Cc1ccccc1)NC(=O)c1c(O)c(=O)ccn1C"
numeric_value = 75.1

